These measurements were taken from paper PMC6305410.

target: NleB1 (Escherichia coli, UniProt Q8XBX8)
Construct: GST-EHEC-NleB1 in pET42a (GST/His tagged), expressed in E. coli BL21 (DE3), nickel purified; some tag cleavage noted
testSettings: 40 µM; inhibitor
reportedProperty: % NleB1 inhibition (µM compound) / 40 (%)
Respond with the bare value in %.

# lookup: % NleB1 inhibition (µM compound) / 40 of C[C@H](c1ccccc1)N1C[C@@H](COCc2ccccc2)Oc2cc(N3CC[C@@H](O)C3)ccc2S1(=O)=O [KUC108511N]
29.9

# lookup: % NleB1 inhibition (µM compound) / 40 of COc1cc(C(C)=O)ccc1OCc1cn(CC(=O)c2ccc(O)cc2)nn1 [KUC104076N]
45.1

# lookup: % NleB1 inhibition (µM compound) / 40 of O=C(c1ccc(F)cc1)N1CCCC2(CC(c3cccc(Cl)c3)=CO2)C1 (stereo not shown) [KUC111570N]
5.2

# lookup: % NleB1 inhibition (µM compound) / 40 of O=c1cc(-c2ccccc2Cl)oc2c(NS(=O)(=O)c3cc(Cl)cc(Cl)c3O)ccc(O)c12 [KUC100066N]
84.8

# lookup: % NleB1 inhibition (µM compound) / 40 of CC1C(=O)N(Cc2cn(CCC3OCCCO3)nn2)CCS(=O)(=O)N1Cc1ccc(-c2cccc(N(C)C)c2)cc1 (stereo not shown) [KUC104889N]
29.5

# lookup: % NleB1 inhibition (µM compound) / 40 of COc1ccc(OCc2cn(CC(=O)c3ccc(O)cc3)nn2)cc1 [KUC104109N]
53.9

# lookup: % NleB1 inhibition (µM compound) / 40 of O=C1CCN(S(=O)(=O)c2ccccc2)CCN1CCOCc1ccc(Cl)cc1 [KUC100988N]
26.3

# lookup: % NleB1 inhibition (µM compound) / 40 of CC(=O)Nc1ccc(OCc2cn(CC(=O)c3ccc(O)cc3)nn2)cc1 [KUC104101N]
74.6

# lookup: % NleB1 inhibition (µM compound) / 40 of O=S1(=O)CC(N2CCN(Cc3ccccc3F)CC2)CN1Cc1cn(Cc2cccc(Cl)c2)nn1 (stereo not shown) [KUC108236N]
13.1

# lookup: % NleB1 inhibition (µM compound) / 40 of COCOCCn1cc(CN2CCS(=O)(=O)N(Cc3ccc(-c4ccc(OC)nc4)cc3)C(C(C)C)C2=O)nn1 (stereo not shown) [KUC105133N]
45.5

# lookup: % NleB1 inhibition (µM compound) / 40 of O=C1CCC[C@@H]2Cc3nc4ccc(O)cc4cc3[C@@H]3CCN1[C@H]23 [KUC103038N]
34.4

# lookup: % NleB1 inhibition (µM compound) / 40 of CC(C)CN1CCC(=O)N(CCC#N)CC1 [KUC102485N]
17.6

# lookup: % NleB1 inhibition (µM compound) / 40 of C[C@@H]1NC(=O)O[C@H]1c1ccco1 [KUC103195N]
28.1

# lookup: % NleB1 inhibition (µM compound) / 40 of CCC(=O)c1ccc(OCc2cn(CC(=O)c3ccc(O)cc3)nn2)cc1 [KUC104108N]
49.4

# lookup: % NleB1 inhibition (µM compound) / 40 of CCCC(=O)c1ccc(OCc2cn(CC(=O)c3ccc(O)cc3)nn2)cc1 [KUC104099N]
45.2

# lookup: % NleB1 inhibition (µM compound) / 40 of CC(C)CC1C(=O)N(Cc2cn(CCC3OCCCO3)nn2)CCS(=O)(=O)N1Cc1ccc(-c2ccc(F)nc2)cc1 (stereo not shown) [KUC105151N]
31.9

# lookup: % NleB1 inhibition (µM compound) / 40 of Cc1cccc(C)c1OCc1cn(CC(=O)c2ccc(O)cc2)nn1 [KUC104090N]
53.2

# lookup: % NleB1 inhibition (µM compound) / 40 of C=CCN1CC[C@@H](O)C(=C)S1(=O)=O [KUC103094N]
19.2

# lookup: % NleB1 inhibition (µM compound) / 40 of CN(C)CCN1CCN(C2CN(Cc3cn(Cc4ccc(F)cc4)nn3)S(=O)(=O)C2)CC1 (stereo not shown) [KUC108117N]
25.1

====

target: NleB1 (Escherichia coli)
Construct: GST-EHEC-NleB1 in pET42a (GST/His tagged), expressed in E. coli BL21 (DE3), nickel purified; some tag cleavage noted
testSettings: 160 µM; inhibitor
Use condition met when the recorded % NleB1 inhibition (µM compound) / 160 is no lower than 60%; use condition not met when it is lower.

# check: % NleB1 inhibition (µM compound) / 160 of O=C(Cn1cc(COc2cccc([N+](=O)[O-])c2)nn1)c1ccc(O)cc1 [KUC104086N] is greater than or equal to 60%
condition not met

# check: % NleB1 inhibition (µM compound) / 160 of Cc1cccc(C)c1OCc1cn(CC(=O)c2ccc(O)cc2)nn1 [KUC104090N] is greater than or equal to 60%
condition met

# check: % NleB1 inhibition (µM compound) / 160 of COCOCCn1cc(CN2CCS(=O)(=O)N(Cc3ccc(-c4ccc(F)nc4)cc3)C(CC(C)C)C2=O)nn1 (centres unmarked) [KUC105149N] is greater than or equal to 60%
condition met

# check: % NleB1 inhibition (µM compound) / 160 of CCC(=O)c1ccc(OCc2cn(CC(=O)c3ccc(O)cc3)nn2)cc1 [KUC104108N] is greater than or equal to 60%
condition met

# check: % NleB1 inhibition (µM compound) / 160 of C[C@@H]1CCCN1c1ccc2c(c1)O[C@@H]1CCN(C1)S2(=O)=O [KUC111139N] is greater than or equal to 60%
condition not met

# check: % NleB1 inhibition (µM compound) / 160 of COc1ccc(C2CC(O)(c3ccccc3)Oc3c(C)ccc(C)c32)cc1 (centres unmarked) [KUC101437N] is greater than or equal to 60%
condition not met

# check: % NleB1 inhibition (µM compound) / 160 of CCC[C@H]1[C@@H](OC(=O)NCc2ccc(OC)cc2)CC[C@@]23CCCN2C(=O)CCC[C@@H]13 [KUC112136N] is greater than or equal to 60%
condition not met

# check: % NleB1 inhibition (µM compound) / 160 of COc1cccc(N2[C@@H](CC(=O)O)c3ccc(/C=C/C(=O)O)cc3S2(=O)=O)c1 [KUC102262N] is greater than or equal to 60%
condition not met

# check: % NleB1 inhibition (µM compound) / 160 of CCCCCCCCN1[C@@H](CC(=O)OC)c2ccc(/C=C/C(=O)OC)cc2S1(=O)=O [KUC102268N] is greater than or equal to 60%
condition not met

# check: % NleB1 inhibition (µM compound) / 160 of CN1CCC(N2CCN(C3CN(Cc4cn(Cc5cccc(Cl)c5)nn4)S(=O)(=O)C3)CC2)CC1 (centres unmarked) [KUC108133N] is greater than or equal to 60%
condition not met

# check: % NleB1 inhibition (µM compound) / 160 of CC(=O)Nc1ccc(OCc2cn(CC(=O)c3ccc(O)cc3)nn2)cc1 [KUC104101N] is greater than or equal to 60%
condition met

# check: % NleB1 inhibition (µM compound) / 160 of CCCCCCCCCCCCN1[C@@H](CC(=O)O)c2cc(C(F)(F)F)ccc2S1(=O)=O [KUC101994N] is greater than or equal to 60%
condition met

# check: % NleB1 inhibition (µM compound) / 160 of CCCCCC(=O)N1C[C@H](n2cc(COC(=O)c3ccccc3)nn2)[C@@H](O)C[C@@H]1c1ccc(Cl)cc1 [KUC105040N] is greater than or equal to 60%
condition not met

# check: % NleB1 inhibition (µM compound) / 160 of CCCCCCCCN1[C@@H](CC(=O)OC)c2cc(F)ccc2S1(=O)=O [KUC101907N] is greater than or equal to 60%
condition not met

# check: % NleB1 inhibition (µM compound) / 160 of O=C1CCC[C@@H]2Cc3nc4ccc(O)cc4cc3[C@@H]3CCN1[C@H]23 [KUC103038N] is greater than or equal to 60%
condition met

# check: % NleB1 inhibition (µM compound) / 160 of CN(C)CCN1CCN(C2CN(Cc3cn(Cc4ccc(F)cc4)nn3)S(=O)(=O)C2)CC1 (centres unmarked) [KUC108117N] is greater than or equal to 60%
condition not met

# check: % NleB1 inhibition (µM compound) / 160 of CC1C(=O)N(Cc2cn(CCC3OCCCO3)nn2)CCS(=O)(=O)N1Cc1ccc(-c2cccc(N(C)C)c2)cc1 (centres unmarked) [KUC104889N] is greater than or equal to 60%
condition not met

====

target: NleB1 (Escherichia coli)
Construct: GST-EHEC-NleB1 in pET42a (GST/His tagged), expressed in E. coli BL21 (DE3), nickel purified; some tag cleavage noted
testSettings: 160 µM; inhibitor
Use 1 (yes) when the recorded % NleB1 inhibition (µM compound) / 160 is no lower than 60%; use 0 (no) when it is lower.

# check: % NleB1 inhibition (µM compound) / 160 of COc1ccc(-c2ccc(CN3C(C(C)C)C(=O)N(Cc4cn(CCC5OCCO5)nn4)CCS3(=O)=O)cc2)cn1 (stereo not drawn) [KUC105137N] is greater than or equal to 60%
1 (yes)

# check: % NleB1 inhibition (µM compound) / 160 of Cc1cccc(C(=O)N2CCC(=O)N([C@H](COCc3ccc(Cl)cc3)Cc3ccccc3)CC2)c1 [KUC100143N] is greater than or equal to 60%
1 (yes)

# check: % NleB1 inhibition (µM compound) / 160 of COc1ccc(C(CCN2CCOCC2)c2c(OC)cc(OC)c3c2OC(=O)CC3c2ccc(OC)cc2)cc1 (stereo not drawn) [KUC101459N] is greater than or equal to 60%
0 (no)

# check: % NleB1 inhibition (µM compound) / 160 of O=C(Cn1cc(COc2ccccc2C(F)(F)F)nn1)c1ccc(O)cc1 [KUC104085N] is greater than or equal to 60%
1 (yes)

# check: % NleB1 inhibition (µM compound) / 160 of COc1cc(C(C)=O)ccc1OCc1cn(CC(=O)c2ccc(O)cc2)nn1 [KUC104076N] is greater than or equal to 60%
1 (yes)

# check: % NleB1 inhibition (µM compound) / 160 of CCCCN1CC(COCc2ccccc2)Oc2cccc(Oc3ccc(F)cc3OC)c2S1(=O)=O (stereo not drawn) [KUC106008N] is greater than or equal to 60%
0 (no)
